Reference source for all entries: PubChem BioAssay (NCI)

compounds and their reported TGI
- System: A498 renal
- experiment: NCI tumour cell line growth inhibition, 48 h

compound | TGI
COc1ccc2nc3ccc(OC)cc3c(SCCCl)c2c1 | > 91.5 µM
CC1=NN(c2nc(N)nc(/C(C#N)=C\c3ccc(-c4ccc([N+](=O)[O-])cc4)o3)n2)C(C)(C)C1 | > 100 µM
C1CCCN(NC2=NCCO2)CC1 | > 100 µM
Cc1ccc(S(=O)(=O)N2CCSCCSCCSCCN(S(=O)(=O)c3ccc(C)cc3)CC2)cc1 | > 100 µM
Cc1cc(O)c(/C=N/C(=S)Nc2ccc(S(N)(=O)=O)cc2)c(=O)o1 | > 100 µM
O=[N+]([O-])c1cccc2nccc(NCCN3CCOCC3)c12 | 29.3 µM
O=CN1N=C(c2cccc(Nc3ccnc4cc(Cl)ccc34)c2)CC1c1ccc(Cl)cc1 (stereo not given) | 6.18 µM
CN(CCc1ccccn1)c1ccc2c(c1)C(=O)c1ccccc1-2 | > 100 µM
CCCCCCCCCCCCOCC1(COCCCCCCCCCCCC)COC(c2ccc(N)cc2)OC1 | > 100 µM
CC(C)[C@H]1NC(=O)[C@H]2N=C(S[C@H]2C)[C@@H]2CCCN2C(=O)[C@H](Cc2ccccc2)NC(=O)[C@@H]2CSC(=N2)[C@@H](Cc2ccccc2)NC(=O)[C@@H]2CSC1=N2 | 41.7 µM
COc1cc(NC2CCCCC2O)c2nc(-c3ccc(Cl)cc3)ccc2c1 (stereo not given) | 34.8 µM
Clc1ccc(CN2CCCN(Cc3ccc(Cl)cc3)C2c2cc3ccccc3c3ccccc23)cc1 | 56.5 µM
O=C1Cc2cn[nH]c2-c2ccccc2N1 | > 100 µM
CCOc1ccc(NC(=O)C(=O)Nn2c(N)nnc2N)cc1 | > 100 µM
CC(=O)OCC1OC(n2c3c(cc(C#N)c2=S)CCCC3)C(OC(C)=O)C(OC(C)=O)C1OC(C)=O (stereo not given) | > 100 µM
Cc1ccc(S(=O)(=O)N2CCNCCN(S(=O)(=O)c3ccc(C)cc3)CCNCC2)cc1 | 47 µM
CCN(c1ccccc1)[C@H]1C(=O)N(c2ccc([N+](=O)[O-])cc2)[C@H]1c1ccc(OC)cc1 | > 100 µM
O=C(/C=C/c1ccccc1O)c1ccccc1Cl | > 100 µM
COc1cc([C@@H]2c3cc4c(cc3[C@@H](NCc3cccc(C#N)c3)C3COC(=O)[C@@H]32)OCO4)cc(OC)c1O (stereo not given in full) | 4.27 µM
COc1ccc(C2Cc3cc(OC)c(OC)c(OC)c3C2)cc1 (stereo not given) | > 100 µM
